Collected IC50 values appear next to each entry.
STUDY_TARGET: UniProtKB P46663
EXPERIMENT_DESCRIPTION: Antagonist activity at human bradykinin B1 receptor expressed in CHOD cells assessed as effect on DAK-induced calcium flux
Assay type: functional, cell-based

INPUT_SMILES | ENDPOINT_VALUE
CC(C)(C)NCc1ccc2c(c1)OCC[C@H]2NC(=O)C[C@@H](NS(=O)(=O)c1ccc(F)c(Cl)c1)c1ccccc1 | 203 nM (antagonist)

## Input For the compound CN(C)Cc1ccc2c(c1)OCC[C@H]2NC(=O)C[C@@H](NS(=O)(=O)c1ccc2ccccc2c1)c1ccccc1 , what IC50 is on record?
## Output 167 nM (antagonist)

## Input Do the same for CC(C)(C)NCc1ccc2c(c1)OCC[C@H]2NC(=O)C[C@@H](NS(=O)(=O)c1cccc(C(F)(F)F)c1)c1ccc(C#N)cc1 please
## Output 566 nM (antagonist)

## Input Do the same for CC(C)(C)NCc1ccc2c(c1)OCC[C@H]2NC(=O)C[C@@H](NS(=O)(=O)c1ccccc1C(F)(F)F)c1ccccc1 please
## Output 2000 nM (antagonist)

---

EXPERIMENT_DESCRIPTION: Metabolic stability in rat liver microsomes
Type: ADME, Microsome
CONDITION_SET: read-out: Stability
ENDPOINT_LABEL: microsomal CLint (µL/min/mg)

INPUT_SMILES | RESULT_UNITS | microsomal CLint
O=C(C[C@@H](NS(=O)(=O)c1cccc(C(F)(F)F)c1)c1ccc(F)cc1)N[C@@H]1CCOc2cc(CN3CCCCC3)ccc21 | µL/min/mg | 216

1 = COCCNCc1ccc2c(c1)OCC[C@H]2NC(=O)C[C@@H](NS(=O)(=O)c1cccc(C(F)(F)F)c1)c1ccc(F)cc1
2 = O=C(C[C@@H](NS(=O)(=O)c1ccc2ccccc2c1)c1ccccc1)N[C@@H]1CCOc2cc(CN3CCCCC3)ccc21
3 = O=C(C[C@@H](NS(=O)(=O)c1cccc(C(F)(F)F)c1)c1ccc(F)cc1)N[C@@H]1CCOc2cc(CN3CCCC3)ccc21
## Input Rank descending by microsomal CLint. Please respond by ranking the labels in the order requested.
## Output 2, 1, 3

---

STUDY_TARGET: B1 bradykinin receptor (Homo sapiens)
Sequence (P46663 whole entry): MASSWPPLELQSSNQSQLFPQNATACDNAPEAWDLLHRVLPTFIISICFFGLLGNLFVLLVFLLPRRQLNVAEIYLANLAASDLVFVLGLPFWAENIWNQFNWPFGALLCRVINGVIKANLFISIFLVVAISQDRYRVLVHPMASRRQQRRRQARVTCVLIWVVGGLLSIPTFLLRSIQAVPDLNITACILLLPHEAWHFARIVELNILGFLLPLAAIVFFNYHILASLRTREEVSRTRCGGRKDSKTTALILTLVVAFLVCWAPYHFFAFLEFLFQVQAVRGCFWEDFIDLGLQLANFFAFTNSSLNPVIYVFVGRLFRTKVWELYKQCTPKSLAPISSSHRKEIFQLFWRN
EXPERIMENT_DESCRIPTION: Displacement of [3H]DAK from human bradykinin B1 receptor expressed in CHOD cells
Assay type: cell-based
ENDPOINT_LABEL: Ki

Solved cases below.
INPUT_SMILES | ENDPOINT_VALUE
CNCc1ccc2c(c1)OCC[C@H]2NC(=O)C[C@@H](NS(=O)(=O)c1ccc2ccccc2c1)c1ccccc1 | 138 nM (antagonist)
CC(C)(C)NCc1ccc2c(c1)OCC[C@H]2NC(=O)C[C@@H](NS(=O)(=O)c1ccc(Cl)c(Cl)c1)c1ccccc1 | 7.6 nM (antagonist)
CN(C)Cc1ccc2c(c1)OCC[C@H]2NC(=O)C[C@@H](NS(=O)(=O)c1ccc2ccccc2c1)c1ccccc1 | 84.8 nM (antagonist)
CC(C)(C)NCc1ccc2c(c1)OCC[C@H]2NC(=O)C[C@@H](NS(=O)(=O)c1ccc(Cl)c(Cl)c1)c1ccc(F)cc1 | 5 nM (antagonist)
CC(C)(C)NCc1ccc2c(c1)OCC[C@H]2NC(=O)C[C@@H](NS(=O)(=O)c1ccc(C(F)(F)F)cc1)c1ccccc1 | 77.6 nM (antagonist)
CC(C)(C)NCc1ccc2c(c1)OCC[C@H]2NC(=O)C[C@@H](NS(=O)(=O)c1ccc(C(C)(C)C)cc1)c1ccccc1 | 24.8 nM (antagonist)

## Input For the molecule C[C@@H]1CCC[C@H](C)N1Cc1ccc2c(c1)OCC[C@H]2NC(=O)C[C@@H](NS(=O)(=O)c1ccc2ccccc2c1)c1ccccc1 , what Ki is on record?
## Output 13.4 nM (antagonist)

Reference source: ChEMBL document CHEMBL1147141
